Biological target: Man(a1-2)Man(a1-3)[Man(a1-3)[Man(a1-6)]Man(a1-6)]Man(b1-4)GlcNAc(b1-4)GlcNAc
Assay: glycan array binding signal (z-score within array); higher = stronger binding
Conditions: glycan notation: IUPAC condensed, linker removed
This excerpt belongs to a sample that is enriched for the strongest signals.
Reported glycan array binding signal (z-score) by item:
quantity-kind: glycan array binding signal (z-score)

1) ASA (Allium sativum) (protein) KAHEKERMGRNTPSAKLMSIAAVAAILTILASTCMARNLLTNGEGLYAGQSLNVEPYHFIMQEDCNLVLYDHSTAVWATNTDIPGKKECRAVLQSDGNFVVYDADGRPLWASHSVRGNGNYVLVLQEDGNVVIYGSDIWSTGTYVKAARGPVVVAMNGTVDGGSLIRPVIVNKNHVPVIRKVGTLSRNILRNDEGLYAGQSLDVEPYHFIMHEDCNLVLYDHSTAVWASNTDIPGKKGCKAVLQSDGNFVVYDAEGRSLWASHSVRGNGNYVLVLQEDGNVVIYGSDIWSTDTYRKSARGPVIRKVGTLAGAA	6.08
2) Crocus Lectin (Crocus vernus), Q9FVA1 (protein) MAKSLVLSSLLLALLLAAPLASLADNNVLLTGDVLHTDNQLSFESAAFVMQGDCNLVLYNEAGGFQSNTHGRGVGCTLRLNNFGQLEIHSANSNTPVWVSLRNGIPVRGDYAAVLGPDQHVTIYGPAIWSTPAPNRHERGATVSNIPRVRNVLFSSQVMSDNAQLATRDYSLVMRDDCNLALTKGSKTNIVWESGTSGRGQHCFMRLGHTGLIEISDDRLNTVWRSNTVGQEGDYVLILQINGQAVVYGPAVWSTASPARGGASAAL	3.76
